measured_quantity: melting point (°C)

Look over these answered cases.
compound	measured_quantity	unit_of_measure	assay_value
COc1cc(OC(CCN(C)CC(=O)O)c2ccc(F)cc2)ccc1Oc1ccccc1 (centres unmarked)	melting point	°C	139.5
COc1ccc(Oc2ccc(OC(CCN(C)CC(=O)O)c3ccccc3)cc2OC)cc1 (centres unmarked)	melting point	°C	60.1

(1) COc1cc(OC(CCN(C)CC(=O)O)c2ccccc2)ccc1Oc1ccccc1 (centres unmarked)
(2) Cc1ccc(Oc2ccc(OC(CCN(C)CC(=O)O)c3ccc(F)cc3)c(Cl)c2)cc1 (centres unmarked)
stdin: Could you determine which record has the numerically smaller melting point? Candidates: 1 and 2 # answer = label of selected item
stdout: 1

---

As shown below, each of these compounds has a reported melting point value.

Look over these answered cases.
compound	assay_value
CN(CCC(Oc1ccc(Oc2cccc3c2CCCC3)cc1)c1ccc(F)cc1)CC(=O)O (stereo not shown)	60 to 61 °C
COc1ccc(Oc2cc(OC(CCN(C)CC(=O)O)c3ccc(F)cc3)ccc2C)cc1 (stereo not shown)	63 to 65 °C
COc1cccc(Oc2cc(OC(CCN(C)CC(=O)O)c3ccc(F)cc3)ccc2C)c1 (stereo not shown)	55 to 57 °C

stdin: Entry Cc1ccc(OC(CCN(C)CC(=O)O)c2ccc(F)cc2)cc1Oc1ccc2c(c1)OCO2 (stereo not shown) : reported melting point = ?
stdout: 185 to 188 °C
